Assay type: in vitro ADME, Rat
protocol-conditions: Rat
*1 amine or outer side, *2 acyl side, *3 side chain or, on linkers, in order; H or OH if unused. Where a SMILES comes first, the peptide text is derived from it. [ ]: non-standard residue; d: D form. X5 = C=CCn1cc(C[C@@H](C(=O)[*:2])N(C)[*:1])c2ccccc21; NMeTrp(1-Me) = CN[C@@H](Cc1cn(C)c2ccccc12)C(=O)O; X1 = C#CCn1cc(C[C@H](N[*:1])C(=O)[*:2])c2ccccc21; NMeLeu(5-OH,4R) = CN[C@@H](C[C@@H](C)CO)C(=O)O; Phe(βR-OMe) = CO[C@H](c1ccccc1)[C@H](N)C(=O)O; NMeL = CN[C@@H](CC(C)C)C(=O)O
reported-metric: Microsomal Stability Rat QH

compound	assay-result
C#CCn1cc(C[C@@H]2NC(=O)[C@H](C(C)C)NC(=O)[C@H](CC(C)C)N(C)C(=O)[C@H](C(C)C)NC(=O)[C@H](Cc3ccccc3)NC(=O)[C@H](C)NC(=O)[C@H](C[C@@H](C)CO)N(C)C2=O)c2ccccc21 [SI-72] (cyclo(AFV[NMeL]V[X1][NMeLeu(5-OH,4R)]))	87.300%
CO[C@H](c1ccccc1)[C@@H]1NC(=O)[C@H](C)NC(=O)[C@H](C[C@@H](C)CO)N(C)C(=O)[C@H](Cc2cn(Cc3cn(CCOCCn4cc(Cn5cc(C[C@@H]6NC(=O)[C@H](C(C)C)NC(=O)[C@H](CC(C)C)N(C)C(=O)[C@H](C(C)C)NC(=O)[C@H]([C@H](OC)c7ccccc7)NC(=O)[C@H](C)NC(=O)[C@H](C[C@@H](C)CO)N(C)C6=O)c6ccccc65)nn4)nn3)c3ccccc23)NC(=O)[C@H](C(C)C)NC(=O)[C@H](CC(C)C)N(C)C(=O)[C@H](C(C)C)NC1=O	<23.100%
COC(c1ccccc1)C1NC(=O)C(C)NC(=O)C(CC(C)CO)N(C)C(=O)C(Cc2cn(CC=CCn3cc(CC4NC(=O)C(C(C)C)NC(=O)C(CC(C)C)N(C)C(=O)C(C(C)C)NC(=O)C(C(OC)c5ccccc5)NC(=O)C(C)NC(=O)C(CC(C)CO)N(C)C4=O)c4ccccc43)c3ccccc23)NC(=O)C(C(C)C)NC(=O)C(CC(C)C)N(C)C(=O)C(C(C)C)NC1=O (stereo not drawn)	<23.100%
C#CCn1cc(C[C@@H]2NC(=O)[C@H](C(C)C)NC(=O)[C@H](CC(C)C)N(C)C(=O)[C@H](C(C)C)NC(=O)[C@H]([C@H](OC)c3ccccc3)NC(=O)[C@H](C)NC(=O)[C@H](C[C@@H](C)CO)N(C)C2=O)c2ccccc21 [Compound 5] (cyclo(A[Phe(βR-OMe)]V[NMeL]V[X1][NMeLeu(5-OH,4R)]))	>87.900%
CO[C@H](c1ccccc1)[C@@H]1NC(=O)[C@H](C)NC(=O)[C@H](C[C@@H](C)CO)N(C)C(=O)[C@H](Cc2cn(C)c3ccccc23)N(C)C(=O)[C@H](CCC(=O)N(C)C)NC(=O)[C@H](CC(C)C)N(C)C(=O)[C@H](C(C)C)NC1=O [SI-76] (cyclo(A[Phe(βR-OMe)]V[NMeL]E(NMe2)[NMeTrp(1-Me)][NMeLeu(5-OH,4R)]))	78.000%
C=CCn1cc(C[C@H]2C(=O)N(C)[C@@H](C[C@@H](C)CO)C(=O)N[C@@H](C)C(=O)N[C@@H]([C@H](OC)c3ccccc3)C(=O)N[C@@H](C(C)C)C(=O)N(C)[C@@H](CC(C)C)C(=O)N[C@@H](C(C)C)C(=O)N2C)c2ccccc21 [SI-60] (cyclo(A[Phe(βR-OMe)]V[NMeL]V[X5][NMeLeu(5-OH,4R)]))	>87.900%

====

test-description: in vitro
protocol-conditions: human, Caco-2, Caco-2 permeability P (A-B), apical to basolateral
reported-metric: Papp A→B

chem-smiles	reported-metric	assay-result
CO[C@H](c1ccccc1)[C@@H]1NC(=O)[C@H](C)NC(=O)[C@H](C[C@@H](C)CO)N(C)C(=O)[C@H](Cc2cn(C)c3ccccc23)N(C)C(=O)[C@H](Cc2cn(CCOCCOCCn3cc(C[C@@H]4NC(=O)[C@H](CC(C)C)N(C)C(=O)[C@H](C(C)C)NC(=O)[C@H]([C@H](OC)c5ccccc5)NC(=O)[C@H](C)NC(=O)[C@H](C[C@@H](C)CO)N(C)C(=O)[C@H](Cc5cn(C)c6ccccc56)N(C)C4=O)nn3)nn2)NC(=O)[C@H](CC(C)C)N(C)C(=O)[C@H](C(C)C)NC1=O	Papp A→B	< 0.5 ×10⁻⁶ cm/s
CO[C@H](c1ccc(OCc2cn(CCCCCn3cc(COc4ccc([C@@H](OC)[C@@H]5NC(=O)[C@H](C)NC(=O)[C@H](C[C@@H](C)CO)N(C)C(=O)[C@H](Cc6cn(C)c7ccccc67)NC(=O)[C@H](C(C)C)NC(=O)[C@H](CC(C)C)N(C)C(=O)[C@H](C(C)C)NC5=O)cc4)nn3)nn2)cc1)[C@@H]1NC(=O)[C@H](C)NC(=O)[C@H](C[C@@H](C)CO)N(C)C(=O)[C@H](Cc2cn(C)c3ccccc23)NC(=O)[C@H](C(C)C)NC(=O)[C@H](CC(C)C)N(C)C(=O)[C@H](C(C)C)NC1=O	Papp A→B	< 2.5 ×10⁻⁶ cm/s
CO[C@H](c1ccccc1)[C@@H]1NC(=O)[C@H](C)NC(=O)[C@H](C[C@@H](C)CO)N(C)C(=O)[C@H](Cc2cn(Cc3cn(CCCCCn4cc(Cn5cc(C[C@H]6C(=O)N(C)[C@@H](C[C@@H](C)CO)C(=O)N[C@@H](C)C(=O)N[C@@H]([C@H](OC)c7ccccc7)C(=O)N[C@@H](C(C)C)C(=O)N(C)[C@@H](CC(C)C)C(=O)N[C@@H](C(C)C)C(=O)N6C)c6ccccc65)nn4)nn3)c3ccccc23)N(C)C(=O)[C@H](C(C)C)NC(=O)[C@H](CC(C)C)N(C)C(=O)[C@H](C(C)C)NC1=O	Papp A→B	< 2.2 ×10⁻⁶ cm/s

====

test-description: Microsomal stability, human
Format: in vitro ADME
protocol-conditions: clearance in microsomes
*1 amine or outer side, *2 acyl side, *3 side chain or, on linkers, in order; H or OH if unused. Where a SMILES comes first, the peptide text is derived from it. [ ]: non-standard residue; d: D form. Trp(1-(1,1-Me2-allyl)) = C=CC(C)(C)n1cc(C[C@H](N)C(=O)O)c2ccccc21; Ala(3R-Me,3-isobutenyl) = CC(C)=C[C@@H](C)[C@H](N)C(=O)O; X5 = C=CCn1cc(C[C@@H](C(=O)[*:2])N(C)[*:1])c2ccccc21; NMeTrp(1-Me) = CN[C@@H](Cc1cn(C)c2ccccc12)C(=O)O; X7 = C=CCn1cc(C[C@H](N[*:1])C(=O)[*:2])c2ccccc21; NMeLeu(5-OH,4R) = CN[C@@H](C[C@@H](C)CO)C(=O)O; Phe(βR-OMe) = CO[C@H](c1ccccc1)[C@H](N)C(=O)O; NMeL = CN[C@@H](CC(C)C)C(=O)O
Documented Microsomal Stability Human across a set of compounds
reported-metric: Microsomal Stability Human

compound	assay-result
CO[C@H](c1ccccc1)[C@@H]1NC(=O)[C@H](C)NC(=O)[C@H](C[C@@H](C)CO)N(C)C(=O)[C@H](Cc2cn(Cc3cn(CCOCCn4cc(Cn5cc(C[C@@H]6NC(=O)[C@H](C(C)C)NC(=O)[C@H](CC(C)C)N(C)C(=O)[C@H](C(C)C)NC(=O)[C@H]([C@H](OC)c7ccccc7)NC(=O)[C@H](C)NC(=O)[C@H](C[C@@H](C)CO)N(C)C6=O)c6ccccc65)nn4)nn3)c3ccccc23)NC(=O)[C@H](C(C)C)NC(=O)[C@H](CC(C)C)N(C)C(=O)[C@H](C(C)C)NC1=O	70 %Qh
C=CC(C)(C)n1cc(C[C@@H]2NC(=O)[C@H]([C@H](C)C=C(C)C)NC(=O)[C@H](CC(C)C)N(C)C(=O)[C@H](C(C)C)NC(=O)[C@H]([C@H](OC)c3ccccc3)NC(=O)[C@H](C)NC(=O)[C@H](C[C@@H](C)CO)N(C)C2=O)c2ccccc21 [dCymC] (cyclo([Trp(1-(1,1-Me2-allyl))][NMeLeu(5-OH,4R)]A[Phe(βR-OMe)]V[NMeL][Ala(3R-Me,3-isobutenyl)]))	66 %Qh
C=CCn1cc(C[C@@H]2NC(=O)[C@H](C(C)C)NC(=O)[C@H](CC(C)C)N(C)C(=O)[C@H](C(C)C)NC(=O)[C@H]([C@H](OC)c3ccccc3)NC(=O)[C@H](C)NC(=O)[C@H](C[C@@H](C)CO)N(C)C2=O)c2ccccc21 [Compound 13] (cyclo(A[Phe(βR-OMe)]V[NMeL]V[X7][NMeLeu(5-OH,4R)]))	> 88 %Qh
C=CCn1cc(C[C@H]2C(=O)N(C)[C@@H](C[C@@H](C)CO)C(=O)N[C@@H](C)C(=O)N[C@@H]([C@H](OC)c3ccccc3)C(=O)N[C@@H](C(C)C)C(=O)N(C)[C@@H](CC(C)C)C(=O)N[C@@H](C(C)C)C(=O)N2C)c2ccccc21 [SI-60] (cyclo(A[Phe(βR-OMe)]V[NMeL]V[X5][NMeLeu(5-OH,4R)]))	> 88 %Qh
COC(c1ccccc1)C1NC(=O)C(C)NC(=O)C(CC(C)CO)N(C)C(=O)C(Cc2cn(CC=CCn3cc(CC4NC(=O)C(C(C)C)NC(=O)C(CC(C)C)N(C)C(=O)C(C(C)C)NC(=O)C(C(OC)c5ccccc5)NC(=O)C(C)NC(=O)C(CC(C)CO)N(C)C4=O)c4ccccc43)c3ccccc23)NC(=O)C(C(C)C)NC(=O)C(CC(C)C)N(C)C(=O)C(C(C)C)NC1=O (stereo not drawn)	< 24 %Qh
CO[C@H](c1ccccc1)[C@@H]1NC(=O)[C@H](C)NC(=O)[C@H](C[C@@H](C)CO)N(C)C(=O)[C@H](Cc2cn(C)c3ccccc23)N(C)C(=O)[C@H](CCC(=O)N(C)C)NC(=O)[C@H](CC(C)C)N(C)C(=O)[C@H](C(C)C)NC1=O [SI-76] (cyclo(A[Phe(βR-OMe)]V[NMeL]E(NMe2)[NMeTrp(1-Me)][NMeLeu(5-OH,4R)]))	> 88 %Qh

This collection of values is drawn from paper PMC10914731.
